Measured values drawn from patent US20250243227A1 for this set.

Target: recombinant human α-IDUA (rh-α-IDUA, Aldurazyme®) (Homo sapiens (Human), UniProt P35475)
Sequence (P35475 26-653): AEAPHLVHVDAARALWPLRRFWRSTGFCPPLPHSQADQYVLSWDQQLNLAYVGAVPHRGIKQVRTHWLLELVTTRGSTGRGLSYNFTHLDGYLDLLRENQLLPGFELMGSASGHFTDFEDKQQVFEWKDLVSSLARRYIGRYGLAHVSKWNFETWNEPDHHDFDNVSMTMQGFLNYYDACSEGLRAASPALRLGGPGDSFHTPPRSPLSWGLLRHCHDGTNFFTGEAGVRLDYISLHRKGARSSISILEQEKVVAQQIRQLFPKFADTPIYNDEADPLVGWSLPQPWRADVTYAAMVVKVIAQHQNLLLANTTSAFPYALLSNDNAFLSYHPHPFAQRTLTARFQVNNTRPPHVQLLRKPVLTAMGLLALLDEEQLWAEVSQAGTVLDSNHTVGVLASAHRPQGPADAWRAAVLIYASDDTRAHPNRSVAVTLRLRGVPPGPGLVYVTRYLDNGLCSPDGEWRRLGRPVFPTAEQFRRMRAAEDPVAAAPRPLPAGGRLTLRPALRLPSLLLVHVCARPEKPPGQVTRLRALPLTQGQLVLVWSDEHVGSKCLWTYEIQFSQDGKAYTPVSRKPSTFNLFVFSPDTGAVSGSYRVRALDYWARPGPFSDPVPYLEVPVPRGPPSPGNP
Test: IDUA inhibition assay (fluorogenic substrate 4MU-IdoA)
Conditions: apparent IC50 against rh-α-IDUA, 4-MU-IdoA substrate, pH 3.5
Procedure: Compounds were mixed with recombinant human α-IDUA (rh-α-IDUA, Aldurazyme®, 1.2 nM as the final concentration) and the fluorogenic substrate, […] (4MU-IdoA; Cayman), at a final concentration of 100 μM in pH 3.5 buffer (50 mM NaOAc and 150 mM NaCl), then incubated in a 384-well microplate at 37° C. for 30 min. […] Raw fluorescence counts were background subtracted, as defined by counts from substrate solution only. […]
Reported Property: IC50 (µM)

O=C(Cc1ccc(OP(=O)(O)O)cc1)NCC[C@@H]1O[C@@H](C(=O)O)[C@@H](O)[C@H](O)[C@H]1O [Compound 27a]	5.4

a. NCC[C@@H]1O[C@@H](C(=O)O)[C@@H](O)[C@H](O)[C@H]1O [Compound 12]
b. O=C(Cc1ccccc1OP(=O)(O)O)NCC[C@@H]1O[C@@H](C(=O)O)[C@@H](O)[C@H](O)[C@H]1O [Compound 27c]
c. O=C(Cc1cccc(OP(=O)(O)O)c1)NCC[C@@H]1O[C@@H](C(=O)O)[C@@H](O)[C@H](O)[C@H]1O [Compound 27b]
Ascending by IC50, please. Please reply with the labels ordered as requested. Many thanks.
b, c, a
